target: Brucella melitensis DAPDC (diaminopimelate decarboxylase) (Brucella melitensis, UniProt Q8YJJ9); construct: gene lysA; assay: biochemical; settings: read-out: Inhibitory rate (%)
Sequence (Q8YJJ9 1-421): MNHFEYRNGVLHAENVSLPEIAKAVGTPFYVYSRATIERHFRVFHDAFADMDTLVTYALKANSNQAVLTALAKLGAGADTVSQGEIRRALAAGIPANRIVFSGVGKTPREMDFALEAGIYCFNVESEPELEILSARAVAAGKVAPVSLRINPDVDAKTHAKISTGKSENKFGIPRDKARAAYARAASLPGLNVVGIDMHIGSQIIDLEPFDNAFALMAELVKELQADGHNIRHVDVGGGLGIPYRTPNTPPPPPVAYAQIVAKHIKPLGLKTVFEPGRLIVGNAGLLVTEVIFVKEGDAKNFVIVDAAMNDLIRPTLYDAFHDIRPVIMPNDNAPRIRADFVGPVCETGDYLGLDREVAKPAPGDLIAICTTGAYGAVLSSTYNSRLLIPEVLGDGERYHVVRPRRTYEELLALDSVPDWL
Given measured inhibition at 40 µM, output true (1) if it is greater than or equal to 60% and false (0) if not.

[[record]]
compound = "Nc1nc(=S)c2[nH]cnc2[nH]1"
assigned_category = "true (1)"


Query compound follows.
Input: Please indicate if the recorded inhibition at 40 µM for C[C@H]1COc2c(N3CCN(C)CC3)c(F)cc3c(=O)c(C(=O)O)cn1c23 meets or exceeds 60%.
Output: false (0)

###

biological target: Brucella melitensis DAPDC (diaminopimelate decarboxylase) (Brucella melitensis, UniProt Q8YJJ9); construct: gene lysA; assay: biochemical; conditions: read-out: Inhibitory rate (%)
Below: a set of entries, each annotated with reported inhibition at 40 µM.
Give the quantity in %, number only.

Worked set:
[[record]]
compound = "Cc1c(Cl)cccc1Nc1ccccc1C(=O)O"
result_unit = "%"
test_value = 44

[[record]]
compound = "Cc1nc(Nc2ncc(C(=O)Nc3c(C)cccc3Cl)s2)cc(N2CCN(CCO)CC2)n1 [SID3, dasatinib monohydrate]"
result_unit = "%"
test_value = 67.1

[[record]]
compound = "COc1ccc(-c2nc3ccc(C4=NNC(=O)CC4C)cc3[nH]2)cc1 (stereo not drawn)"
result_unit = "%"
test_value = 46.8

[[record]]
compound = "CCC(=O)c1c(O)cc(O)cc1O"
result_unit = "%"
test_value = 49.2

[[record]]
compound = "CO[C@H]1/C=C/O[C@@]2(C)Oc3c(C)c(O)c4c(O)c(c(/C=N/N5CCN(C)CC5)c(O)c4c3C2=O)NC(=O)/C(C)=C\\C=C\\[C@H](C)[C@H](O)[C@@H](C)[C@@H](O)[C@@H](C)[C@H](OC(C)=O)[C@@H]1C"
result_unit = "%"
test_value = 51.5


// below: inhibition at 40 µM requested for another compound
Input: Name the recorded inhibition at 40 µM of the item COc1cc(C2Oc3ccc(C4Oc5cc(O)cc(O)c5C(=O)C4O)cc3OC2CO)ccc1O (stereo not drawn) in your answer.
Output: 70.3

###

target: Brucella melitensis DAPDC (diaminopimelate decarboxylase) (Brucella melitensis); construct: gene lysA; test: biochemical; settings: read-out: Inhibitory rate (%)
Below: a set of entries, each annotated with reported inhibition at 40 µM.
Give the quantity in %, number only.

Worked set:
[[record]]
molecule = "CCN(CCO)CCCC(C)Nc1ccnc2cc(Cl)ccc12 (racemic) [SID6, S4430]"
result_unit = "%"
test_value = 56.1

[[record]]
molecule = "CC(=O)c1c(C)c2cnc(Nc3ccc(N4CCNCC4)cn3)nc2n(C2CCCC2)c1=O [SID10, S1579]"
result_unit = "%"
test_value = 52.1


Input: Name the recorded inhibition at 40 µM of the item CC1COc2c(N3CCN(C)CC3)c(F)cc3c(=O)c(C(=O)O)cn1c23 (stereo not drawn) [SID16, S1940] in your answer.
Output: 46.7

###

target: Brucella melitensis DAPDC (diaminopimelate decarboxylase) (Brucella melitensis); construct: gene lysA; test: biochemical; conditions: read-out: Inhibitory rate (%)
Below: a set of entries, each annotated with reported inhibition at 40 µM.
Give the quantity in %, number only.

Worked set:
[[record]]
compound = "CC(C)Nc1cc(-c2c[nH]c(C(=O)N[C@H](CO)c3cccc(Cl)c3)c2)c(Cl)cn1"
test_value = 47.3

[[record]]
compound = "Cc1cccn2c(=O)c(-c3nn[nH]n3)cnc12"
test_value = 63.1


Input: Name the recorded inhibition at 40 µM of the item CC(NC(C)(C)C)C(=O)c1cccc(Cl)c1 (racemic) in your answer.
Output: 47.7

The measured values listed here are drawn from paper PMC6986272.
